Where do these numbers come from? They come from patent US20140221499A1.

Target: UniProt Q923X5
Sequence (Q923X5 1-358): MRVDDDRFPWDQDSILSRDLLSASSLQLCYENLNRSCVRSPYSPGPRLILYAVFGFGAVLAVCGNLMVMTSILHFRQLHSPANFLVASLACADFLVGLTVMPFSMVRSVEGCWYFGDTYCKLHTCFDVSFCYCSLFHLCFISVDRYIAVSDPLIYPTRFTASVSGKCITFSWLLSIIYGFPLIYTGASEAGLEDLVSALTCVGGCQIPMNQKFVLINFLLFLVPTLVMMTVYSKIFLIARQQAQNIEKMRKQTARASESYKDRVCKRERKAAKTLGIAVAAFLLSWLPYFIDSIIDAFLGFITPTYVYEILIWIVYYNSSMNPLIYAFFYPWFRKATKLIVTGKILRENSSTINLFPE
Experiment: CRE-SEAP reporter gene assay in HEK293 cells transfected with rTAAR7d
Conditions: FIG. 11A, functional with or without 'Rho tag', EC50 ± s.e.m., 4-parameter Hill equation
readout-type: EC50

Request the reported EC50 associated with CN(C)C1CCCCC1 [N,N-DIMETHYLCYCLOHEXYLAMINE, N,N-dimethylcyclohexylamine]
4.6 µM

====

Target: mTAAR4 (Mus musculus)
Construct: Full Taar coding regions were cloned into pcDNA3.1
Sequence (Q5QD15 with tags, fused parts or gaps): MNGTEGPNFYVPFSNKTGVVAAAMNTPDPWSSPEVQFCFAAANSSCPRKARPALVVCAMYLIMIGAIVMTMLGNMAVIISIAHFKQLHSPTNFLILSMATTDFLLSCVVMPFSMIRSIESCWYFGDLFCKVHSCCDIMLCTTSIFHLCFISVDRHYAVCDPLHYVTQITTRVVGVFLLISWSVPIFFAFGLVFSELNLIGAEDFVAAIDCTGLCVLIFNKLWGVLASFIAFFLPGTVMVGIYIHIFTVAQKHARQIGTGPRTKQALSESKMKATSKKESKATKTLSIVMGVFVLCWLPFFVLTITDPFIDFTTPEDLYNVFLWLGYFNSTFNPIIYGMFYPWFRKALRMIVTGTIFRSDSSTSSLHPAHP
Assay: CRE-SEAP reporter gene assay in HEK293 cells transfected with mTAAR4 (fusion with N-terminal sequence of bovine rhodopsin, 'Rho tag')
Conditions: FIG. 11B, mTAAR4 required a 'Rho tag' (N-terminal bovine rhodopsin sequence, first 20 amino acids), EC50 ± s.e.m., 4-parameter Hill equation
readout-type: pEC50
Numbers only, as −log10 of the molar value.

I have this compound here, NCCc1ccccc1 [2-phenylethylamine] , and I need its recorded pEC50.
5.12
